system: A549 cells; experiment: Cytotoxicity against A549 cells, Alamar Blue; format: cell-based; settings: Homo sapiens, A549, 65 h; Supplementary Table 1; compound 0.5 mM; percentage of controls (n=1)
endpoint: viability at 500 µM (%)

COC(=O)c1ccccc1C [compound 183, methyl 2‐methylbenzoate]    51
Clc1ccsc1 [compound 48, 3‐chlorothiophene]    101
O=C(O)CSc1ccc(Cl)cc1 [compound 641, 2‐[(4‐chlorophenyl)thio]acetic acid]    119
Fc1ccc(N2CCNCC2)cc1 [compound 457, 1‐(4‐fluorophenyl)piperazine]    74.7
NCCc1cccs1 [compound 81, 2‐(2‐thienyl)ethylamine]    119

----------
Below, each entry is listed with its recorded viability at 500 µM.
tested on: A549 cells; experiment: Cytotoxicity against A549 cells, Alamar Blue; type: cell-based; details: Homo sapiens, A549, 65 h; Supplementary Table 1; compound 0.5 mM; percentage of controls (n=1)
endpoint: viability at 500 µM (%)

CNCc1cccc(N2CCCCC2)c1    104
Cc1ncsc1C(=O)O    114
NC1CCSCC1 [compound 45, tetrahydrothiopyran‐4‐ylamine]    95.6
Cc1ccc(CO)cc1C    124
Cc1nc(CO)c(C)o1    110
Cc1ccc(N)nc1    89.4
OCc1ccc(-c2cccs2)s1    86.3
Cn1nc2ccccc2c1CO    67.6
O=C(O)C1Cc2ccccc2N1 (centres unmarked)    78.3
CNCc1ccc2ncccc2c1    74.6
CC(=O)c1cc(Cl)sc1Cl    130
OCc1cccc2c1OCC2 [compound 186, 2,3-Dihydrobenzo[b]furan-7-methanol]    41.8
O=C(O)c1ccc(-c2nccs2)cc1    100
Cc1csc(C(=O)O)c1    121
Cn1c(CN)nc2ccccc21    53.8
OCc1cc(-c2cccs2)on1 [compound 462, [5‐(2‐thienyl)‐3‐isoxazolyl]methanol]    76.2
CCc1ccc(CNC)cc1    87

----------
Below, each entry is listed with its recorded viability at 500 µM.
system: A549 cells; assay: Cytotoxicity against A549 cells, Alamar Blue; type: cell-based; conditions: Homo sapiens, A549, 65 h; Supplementary Table 1; compound 0.5 mM; percentage of controls (n=1)
endpoint: viability at 500 µM

CNCc1cccc(-c2nccs2)c1    99.6%
Cc1cc(N)[nH]n1    121%
c1ccc(-c2cc[nH]n2)cc1    82%
NC(=O)NCc1ccc(F)cc1    91.8%
Cc1cccc2cc[nH]c12    13.4%
Cc1nn(C)c(C)c1N    70.9%
OCc1cc2ccccc2o1    78.2%
OCc1ccc(-c2cccnc2)cc1    131%
NCc1ccc(F)c(Cl)c1    88.4%
COc1ccccc1CCC(=O)O    61.6%
COc1ccc(Cl)cc1C(=O)O    101%
N#CC1(O)CN2CCC1CC2 (stereo not drawn) [compound 208, 3‐hydroxyquinuclidine‐3‐carbonitrile]    61.8%
CC(=O)c1sccc1N    100%
Cc1nc(C)c(CO)s1    118%
Cn1ccc2cc(C(=O)O)ccc21    82%
COC(=O)c1ccccc1-n1cccc1 [compound 628, methyl 2‐(1H‐pyrrol‐1‐yl)benzoate]    85.1%
Cc1ccc(CO)o1    23.7%
O=C(O)c1ccco1    107%

----------
tested on: A549 cells; experiment: Cytotoxicity against A549 cells, Alamar Blue; type: cell-based; details: Homo sapiens, A549, 65 h; Supplementary Table 1; compound 0.5 mM; percentage of controls (n=1)
Below, each entry is listed with its recorded viability at 500 µM.
endpoint: viability at 500 µM (%)

CNCc1ccc(N2CCCCC2)cc1    77.4
Nc1ccc2c(c1)OCO2    110
NCc1ccoc1    113
CNc1ccc(F)cc1F    110
Nc1ccccc1N1CCOCC1    56.4
Cc1noc(N)c1C    71.7
O=C(O)c1cccc(-c2ccncc2)c1    66.3
OCc1cccc(N2CCOCC2)c1    101
Cc1ccc(C#N)c(N)c1    96.2
Oc1ccc(F)c(Cl)c1    77.4
C#Cc1ccc(OCCCC)cc1    114
OCc1csc2ccc(Cl)cc12    63.8
N#Cc1ccc(F)cc1    64.2
COc1cccc(N)c1    69.2
Nc1cccc(OC(F)(F)F)c1    85
OCc1ccccc1Cl    109
Cc1ccc(O)c2c1CCC2    53.7
Cc1nc(N)ccc1C#N    76.1

----------
test system: A549 cells; assay: Cytotoxicity against A549 cells, Alamar Blue; format: cell-based; conditions: Homo sapiens, A549, 65 h; Supplementary Table 1; compound 0.5 mM; percentage of controls (n=1)
Below, each entry is listed with its recorded viability at 500 µM.
endpoint: viability at 500 µM (%)

c1ccc(-c2cnco2)cc1    104
OCc1cccc(Oc2ccccn2)c1 [compound 630, [3‐(pyrid‐2‐yloxy)phenyl]methanol]    98.3
O=C(C1CCNCC1)N1CCCC1    86.1
OCc1ccc(N2CCCC2)cc1 [compound 427, [4‐(1‐pyrrolidinyl)phenyl]methanol]    64.2

----------
Below, each entry is listed with its recorded viability at 500 µM.
system: A549 cells; assay: Cytotoxicity against A549 cells, Alamar Blue; assay type: cell-based; conditions: Homo sapiens, A549, 65 h; Supplementary Table 1; compound 0.5 mM; percentage of controls (n=1)
endpoint: viability at 500 µM (%)

Nc1ccc(Cn2ccnc2)cc1    90.7
OCc1cn2ccccc2n1 [compound 172, imidazo[1,2‐a]pyridin‐2‐ylmethanol]    97.5
CC(=O)NCc1cccnc1 [compound 188, N1‐(3‐pyridylmethyl)acetamide]    69.5
Cn1ccc(N)n1    122
OCC1CCNCC1    104

----------
test system: A549 cells; test: Cytotoxicity against A549 cells, Alamar Blue; format: cell-based; settings: Homo sapiens, A549, 65 h; Supplementary Table 1; compound 0.5 mM; percentage of controls (n=1)
Below, each entry is listed with its recorded viability at 500 µM.
endpoint: viability at 500 µM (%)

Cc1cc(C)n(C)n1    88.5
Nc1ccc(-c2ccco2)cc1    75.7
O=C1CSC(c2cccs2)C1 (centres unmarked) [compound 482, 5‐(2‐thienyl)tetrahydrothiophen‐3‐one]    112
Cc1cc(N)on1    87.2
OCc1ccc(-c2ccsc2)cc1    87.2

----------
biological target: TbINO1 (Trypanosoma brucei brucei, UniProt Q5QQ46); test: biochemical; type: binding; conditions: read-out: Tb Ino1 Tm Shift [˚C]
Sequence (Q5QQ46 whole entry): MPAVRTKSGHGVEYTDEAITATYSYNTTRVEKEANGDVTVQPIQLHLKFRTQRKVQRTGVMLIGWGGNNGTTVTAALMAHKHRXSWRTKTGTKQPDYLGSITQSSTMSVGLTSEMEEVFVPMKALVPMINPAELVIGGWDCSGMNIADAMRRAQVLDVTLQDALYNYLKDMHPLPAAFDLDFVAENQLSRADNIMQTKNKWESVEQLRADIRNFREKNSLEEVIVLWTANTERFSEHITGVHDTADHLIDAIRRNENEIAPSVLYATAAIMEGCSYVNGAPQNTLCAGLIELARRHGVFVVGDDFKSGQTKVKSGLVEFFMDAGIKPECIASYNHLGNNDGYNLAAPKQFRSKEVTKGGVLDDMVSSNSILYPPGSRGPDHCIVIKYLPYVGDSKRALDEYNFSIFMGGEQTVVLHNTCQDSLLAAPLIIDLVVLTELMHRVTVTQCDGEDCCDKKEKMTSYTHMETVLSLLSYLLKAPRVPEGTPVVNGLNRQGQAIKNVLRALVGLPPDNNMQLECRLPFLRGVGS
Criterion: ΔTm at 1000 µM meeting or surpassing 0.3 °C. Met: condition met. Not met: condition not met.

Nc1ccc2c(c1)C(=O)OC2 [compound 175, 6‐amino‐1,3‐dihydroisobenzofuran‐1‐one]    condition not met
O=C(O)[C@H]1CCCN1    condition met
c1cnc2c(n1)CCCC2 [compound 111, 5,6,7,8‐tetrahydroquinoxaline]    condition not met
COC(=O)c1ccsc1N [compound 242, methyl 2‐aminothiophene‐3‐carboxylate]    condition met
Cc1ccc2cc(CO)ccc2n1    condition not met
Cc1ccc(CN)cc1Cl    condition not met
Cn1cncc1C#N    condition not met
Cc1nc(-c2ccc(N)cc2)cs1    condition not met
Cc1nn(C)c(C)c1N    condition met
O=C(O)c1cncc(-c2ccccc2)c1    condition met
Cc1cc(CO)nn1C    condition met
N#Cc1cc(Cl)ccc1O [compound 218, 5‐chloro‐2‐hydroxybenzonitrile]    condition met
OCc1ccccc1N1CCOCC1    condition met
Nc1cccc(CN2CCCC2)c1    condition met
N#Cc1ccc(O)cc1F [compound 120, 2‐fluoro‐4‐hydroxybenzonitrile]    condition met
Cc1ccc(O)c(C)n1    condition not met
O=C(O)c1cc2sccc2s1 [compound 479, thieno[3,2‐b]thiophene‐2‐carboxylic acid]    condition not met
Nc1cccc(-c2cnco2)c1    condition not met
c1cnc2c(c1)OCCN2 [compound 118, 3,4‐dihydro‐2H‐pyrido[3,2‐b][1,4]oxazine]    condition met
N#Cc1cc(N)ccc1-n1cccc1    condition not met
CC(=O)Nc1ccc2c(c1)CCC2 [compound 400, N1‐(2,3‐dihydro‐1H‐inden‐5‐yl)acetamide]    condition not met
C1CNCCNC1    condition met
NCc1ccc(N2CCCC2)cc1 [compound 414, [4‐(1‐pyrrolidinyl)phenyl]methanamine]    condition not met
OCc1cc2cccnc2s1 [compound 311, thieno[2,3‐b]pyridin‐2‐ylmethanol]    condition met
N#CCc1nc2ccccc2s1    condition met
NC1=CC=C2OCOCC2C1 (centres unmarked) [compound 195, 4,5‐dihydro‐1,3‐benzodioxine‐6‐amine]    condition met
CCOC(=O)c1[nH]c(C)cc1C    condition met
NC1CCSCC1 [compound 45, tetrahydrothiopyran‐4‐ylamine]    condition not met
O=C(O)c1ccccc1-c1cccnc1    condition not met
Cc1nc(-c2ccc(C#N)cc2)cs1    condition met
N#Cc1ccccc1-n1cccn1    condition not met
NC(=S)Nc1ccncc1    condition not met
OCc1cccc2c1OCO2    condition not met
O=C(O)Cc1ccccc1O [compound 201, 2‐(2‐hydroxyphenyl)acetic acid]    condition met
CC(=O)CSc1ccc(C)cc1 [compound 460, 1‐[(4‐methylphenyl)thio]acetone]    condition met

Cited source: paper PMC3199943
